Entry source: patent US7569578B2

Biological target: Human CGRP1 Receptor (Homo sapiens, UniProt O60894+Q16602)
Construct: endogenous in cells; host or cells: SK-N-MC cells (membrane homogenate)
Sequence (Q16602 23-461): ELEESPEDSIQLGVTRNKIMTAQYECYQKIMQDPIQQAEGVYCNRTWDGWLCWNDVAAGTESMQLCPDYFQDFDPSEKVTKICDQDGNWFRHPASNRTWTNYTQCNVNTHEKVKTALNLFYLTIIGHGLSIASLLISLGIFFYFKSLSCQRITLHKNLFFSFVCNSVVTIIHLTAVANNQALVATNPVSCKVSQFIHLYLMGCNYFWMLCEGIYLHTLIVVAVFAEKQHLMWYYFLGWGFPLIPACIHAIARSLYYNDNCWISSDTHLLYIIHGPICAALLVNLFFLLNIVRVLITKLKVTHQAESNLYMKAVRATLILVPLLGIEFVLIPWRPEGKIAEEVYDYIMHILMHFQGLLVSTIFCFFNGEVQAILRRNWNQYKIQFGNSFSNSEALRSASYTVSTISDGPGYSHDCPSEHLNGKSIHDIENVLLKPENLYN
Sequence (O60894 27-148): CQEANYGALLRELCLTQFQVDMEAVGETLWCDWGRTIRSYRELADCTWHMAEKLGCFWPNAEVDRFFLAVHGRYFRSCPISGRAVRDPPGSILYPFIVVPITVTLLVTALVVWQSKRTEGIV
Test: CGRP Binding Assay ([125I]-CGRP radioligand displacement, SK-N-MC membrane homogenate)
Settings: [125I]-CGRP displacement, SK-N-MC homogenate, room temperature 2 h; read-out: Human CGRP1 Receptor IC50
Protocol: Tissue Culture. SK-N-MC cells were grown at 37° C. in 5% CO2 as a monolayer in medium consisting of MEM with Earle's salts and L-glutamine (Gibco) supplemented with 10% fetal bovine serum (Gibco). Cell Pellets. […] The cells were transferred from plates to polypropylene tubes (16×100 mm) and homogenized using a polytron. Homogenates were centrifuged at 32,000×g for 30 min. […] Radioligand Binding Assay. […] Protein bound radioactivity was determined using a gamma or scintillation counter.
pIC50: −log10 of the molar value.
Measured Metric: pIC50

Study these solved cases before continuing.
In [3]: df
Out[3]:
                                   compound  measured_metric  value_measured
0  CCc1cc(CC(NC(=O)N2CCC(N3Cc4ccccc4NC3=O)CC2)c2nnn[nH]2)cc2c(C)n[nH]c12 (racemic)            pIC50    6.00 to 7.00
1  CCc1cc(CC(NC(=O)N2CCC(N3Cc4ccccc4NC3=O)CC2)c2nnnn2C)cc2c(C)n[nH]c12 (racemic)            pIC50    7.00 to 8.00
2  CCc1cc(CC(NC(=O)N2CCC(N3Cc4ccccc4NC3=O)CC2)c2nnn(CC(=O)c3ccccc3)n2)cc2c(C)n[nH]c12 (racemic)            pIC50    7.00 to 8.00
3  Cc1cc(CC(NC(=O)N2CCC(N3Cc4ccccc4NC3=O)CC2)c2ncc(Br)n2Cc2cc(F)cc(F)c2)cc2c[nH]nc12 (racemic)            pIC50          > 8.00
4  CCOC(=O)c1noc([C@@H](Cc2cc(C)c3[nH]ncc3c2)OC(=O)N2CCC(c3cc4ccccc4[nH]c3=O)CC2)n1            pIC50    7.00 to 8.00
5  Cc1cc(CC(NC(=O)N2CCC(N3Cc4cccc(F)c4NC3=O)CC2)c2ccc3ccccc3n2)cc2cn[nH]c12 (racemic)            pIC50          > 8.00
6  Cc1cn(Cc2cccc(F)c2)c(C(Cc2cc(C)c3[nH]ncc3c2)NC(=O)N2CCC(N3Cc4ccccc4NC3=O)CC2)n1 (racemic)            pIC50          > 8.00
7  Cc1cc(CC(CC(=O)N2CCC(N3Cc4ccccc4NC3=O)CC2)c2nc(CN3CCCCC3)no2)cc2cn[nH]c12 (racemic)            pIC50    7.00 to 8.00
8  Cc1cc(CC(NC(=O)N2CCC(N3Cc4ccccc4NC3=O)CC2)c2nccn2Cc2ccc(F)cc2)cc2cn[nH]c12 (racemic)            pIC50          > 8.00
9  Cc1cc(CC(CC(=O)N2CCC3(CC2)OC(=O)Nc2ccccc23)c2nc(Cc3ccccc3)no2)cc2cn[nH]c12 (racemic)            pIC50    7.00 to 8.00

I have 3 compounds here; please give me pIC50 for each one.
1. Cc1cc(CC(NC(=O)N2CCC(N3Cc4ccccc4NC3=O)CC2)c2nc(Br)c(Br)[nH]2)cc2cn[nH]c12 (racemic)
2. Cc1cc(CC(NC(=O)N2CCC(N3Cc4ccccc4NC3=O)CC2)c2nccn2Cc2cccc(C#N)c2)cc2cn[nH]c12 (racemic)
3. Cc1cc(CC(CC(=O)N2CCC(N3Cc4ccccc4NC3=O)CC2)c2nc(Cc3ccccc3)no2)cc2cn[nH]c12 (racemic)

**A:**
["> 8.00", "> 8.00", "> 8.00"]
